- tested_target: UniProtKB Q8IXJ6
- Sequence (Q8IXJ6 whole entry): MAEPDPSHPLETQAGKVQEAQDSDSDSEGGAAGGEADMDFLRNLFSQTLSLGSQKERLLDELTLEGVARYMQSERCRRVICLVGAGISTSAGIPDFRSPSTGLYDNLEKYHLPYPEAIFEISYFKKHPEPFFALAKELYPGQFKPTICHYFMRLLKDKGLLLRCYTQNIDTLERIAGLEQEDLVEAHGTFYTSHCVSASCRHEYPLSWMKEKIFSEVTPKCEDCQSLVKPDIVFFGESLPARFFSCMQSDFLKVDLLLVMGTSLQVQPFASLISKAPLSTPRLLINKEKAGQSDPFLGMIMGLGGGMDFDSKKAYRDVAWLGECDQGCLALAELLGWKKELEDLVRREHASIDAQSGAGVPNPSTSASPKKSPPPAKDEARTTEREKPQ
- assay_overview: Inhibition of SIRT2 (unknown origin) using fluorogenic substrate assessed as deacetylase activity incubated for 45 mins by fluorescence assay
// NB: equality with 8 µM counts as false (0); only IC50 strictly below is true (1)

compound: Cc1cc(C)n(C2=Nc3c(sc4ccc(Cl)cc34)C(c3cccc([N+](=O)[O-])c3)N2)n1 (stereo not given)
tested_target: UniProtKB Q8IXJ6
group: false (0)
//
compound: NC(=O)CSC1=Nc2c(sc3ccc(Cl)cc23)C(c2cccc([N+](=O)[O-])c2)N1 (stereo not given)
tested_target: UniProtKB Q8IXJ6
group: false (0)
//
compound: O=[N+]([O-])c1cccc(C2c3sc4ccc(Cl)cc4c3N=C3NN=CN32)c1 (stereo not given)
tested_target: UniProtKB Q8IXJ6
group: true (1)
//
compound: O=[N+]([O-])c1cccc(C2c3sc4ccc(Cl)cc4c3N=C3NN=C(c4cccc(F)c4)N32)c1 (stereo not given)
tested_target: UniProtKB Q8IXJ6
group: false (0)

Ask: Criterion: IC50 strictly below 8 µM. Is it met by O=C1CSC2=Nc3c(sc4ccc(Cl)cc34)C(c3ccc4ccccc4c3)N12 (stereo not given) ?
Reply: true (1)

---

- System: T47D
- assay_overview: Growth inhibition of human T47D cells at 10^-5 M incubated for 48 hrs by sulforhodamine B assay
- Format: functional
- conditions: read-out: GI
attribute_measured: inhibition of growth at 10 µM (%)
Only the number, expressed in %, is required.

compound: O=C1CSC2=Nc3c(sc4ccc(Cl)cc34)C(c3cccc([N+](=O)[O-])c3)N12 (stereo not given)
inhibition of growth at 10 µM / %: 8.22
//
compound: O=C1SC2=Nc3c(sc4ccc(Cl)cc34)C(c3ccc4ccccc4c3)N2C1=O (stereo not given)
inhibition of growth at 10 µM / %: 24.5
//
compound: NC(=O)CSC1=Nc2c(sc3ccc(Cl)cc23)C(c2cccc([N+](=O)[O-])c2)N1 (stereo not given)
inhibition of growth at 10 µM / %: 23.9

Ask: # get_value(readout='inhibition of growth at 10 µM', item= O=C1Nc2c(sc3ccc(Cl)cc23)C(c2cccc([N+](=O)[O-])c2)N1 (stereo not given) )
Reply: 16.3

Ask: # get_value(readout='inhibition of growth at 10 µM', item= N=C1Nc2c(sc3ccc(Cl)cc23)C(c2ccc3ccccc3c2)N1 (stereo not given) )
Reply: -15.3

---

This listing pairs molecules with measured inhibition of growth at 10 µM.
- Test system: DU-145
- assay_overview: Growth inhibition of human DU145 cells at 10^-5 M incubated for 48 hrs by sulforhodamine B assay
- Format: functional
- conditions: DU-145, 48 h, read-out: GI
Only the number, expressed in %, is required.

Here are 8 molecules together with their reported answers.
molecule: S=C1Nc2c(sc3ccc(Cl)cc23)C(c2ccc3ccccc3c2)N1 (stereo not given)
tested_target: DU-145
measurement_units: %
inhibition of growth at 10 µM: -6.73

molecule: O=[N+]([O-])c1cccc(C2NC(=S)Nc3c2sc2ccc(Cl)cc32)c1 (stereo not given)
tested_target: DU-145
measurement_units: %
inhibition of growth at 10 µM: -8.3

molecule: Cc1cc(C)n(C2=Nc3c(sc4ccc(Cl)cc34)C(c3cccc([N+](=O)[O-])c3)N2)n1 (stereo not given)
tested_target: DU-145
measurement_units: %
inhibition of growth at 10 µM: -11.3

molecule: O=C1CSC2=Nc3c(sc4ccc(Cl)cc34)C(c3cccc([N+](=O)[O-])c3)N12 (stereo not given)
tested_target: DU-145
measurement_units: %
inhibition of growth at 10 µM: -14.2

molecule: Oc1ccccc1C1NC(=S)Nc2c1sc1ccc(Cl)cc21 (stereo not given)
tested_target: DU-145
measurement_units: %
inhibition of growth at 10 µM: -7.9

molecule: S=C1Nc2c(sc3ccc(Cl)cc23)C(c2cccc(Br)c2)N1 (stereo not given)
tested_target: DU-145
measurement_units: %
inhibition of growth at 10 µM: -11.9

molecule: O=C1Nc2c(sc3ccc(Cl)cc23)C(c2ccc3ccccc3c2)N1 (stereo not given)
tested_target: DU-145
measurement_units: %
inhibition of growth at 10 µM: -6.96

molecule: O=C1Nc2c(sc3ccc(Cl)cc23)C(c2cccc(Br)c2)N1 (stereo not given)
tested_target: DU-145
measurement_units: %
inhibition of growth at 10 µM: -8.69

Ask: # get_value(readout='inhibition of growth at 10 µM', item= CCOC(=O)CSC1=Nc2c(sc3ccc(Cl)cc23)C(c2cccc([N+](=O)[O-])c2)N1 (stereo not given) )
Reply: -8.66

Ask: # get_value(readout='inhibition of growth at 10 µM', item= N=C1Nc2c(sc3ccc(Cl)cc23)C(c2ccc3ccccc3c2)N1 (stereo not given) )
Reply: 12.1
